- target_or_test_system: UniProt P11511
Each record is given Met if its reported IC50 is strictly below 50 µM. Records at or above 50 µM are given Not met.

Take the compound COC(=O)[C@@H]1Cc2c([nH]c3ccccc23)CN1S(=O)(=O)c1ccc(C)cc1 and say whether its IC50 is less than 50 µM.
Not met

Take the compound O=C(O)[C@@H]1Cc2c([nH]c3ccccc23)CN1Cc1ccc(O)cc1 and say whether its IC50 is less than 50 µM.
Met

Take the compound C=CCOC(=O)N1Cc2[nH]c3ccccc3c2C[C@H]1C(=O)OC and say whether its IC50 is less than 50 µM.
Met

Take the compound COC(=O)[C@@H]1Cc2c([nH]c3ccccc23)CN1CC1CC1 and say whether its IC50 is less than 50 µM.
Not met

Take the compound COC(=O)[C@H]1Cc2c([nH]c3ccccc23)CN1S(C)(=O)=O and say whether its IC50 is less than 50 µM.
Not met

Take the compound COC(=O)[C@@H]1Cc2c([nH]c3ccccc23)CN1Cc1ccc(O)cc1 and say whether its IC50 is less than 50 µM.
Not met

Take the compound COC(=O)[C@@H]1Cc2c([nH]c3ccccc23)CN1C(=O)NC(C)C and say whether its IC50 is less than 50 µM.
Met

* * *

Can you tell me inhibition at 50 µM for the items I'm about to list?
- target_or_test_system: Aromatase (Homo sapiens)
- Sequence (P11511 whole entry): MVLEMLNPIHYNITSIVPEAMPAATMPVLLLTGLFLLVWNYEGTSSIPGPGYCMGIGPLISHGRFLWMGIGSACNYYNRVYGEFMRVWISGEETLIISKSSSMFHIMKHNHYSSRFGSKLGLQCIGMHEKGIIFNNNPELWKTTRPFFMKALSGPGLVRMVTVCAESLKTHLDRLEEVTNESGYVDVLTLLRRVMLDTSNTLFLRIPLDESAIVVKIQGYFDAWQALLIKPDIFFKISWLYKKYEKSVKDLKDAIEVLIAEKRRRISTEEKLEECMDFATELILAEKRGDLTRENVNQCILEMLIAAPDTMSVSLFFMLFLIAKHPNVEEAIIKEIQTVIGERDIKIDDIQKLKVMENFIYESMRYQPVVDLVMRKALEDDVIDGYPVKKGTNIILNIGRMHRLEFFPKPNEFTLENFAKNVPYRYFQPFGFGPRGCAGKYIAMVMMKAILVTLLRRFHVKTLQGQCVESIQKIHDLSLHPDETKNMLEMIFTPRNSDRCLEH
- assay_remarks: Inhibition of aromatase at 50 uM after 10 mins preincubation by plate reader relative to control
Field: numeric (%). Do not append units.

Give the reported value of inhibition at 50 µM for this record: O=C(O)[C@@H]1Cc2c([nH]c3ccccc23)CN1S(=O)(=O)c1ccc(Br)cc1
23.2

Give the reported value of inhibition at 50 µM for this record: COC(=O)[C@H]1Cc2c([nH]c3ccccc23)CN1S(=O)(=O)c1ccc(C)cc1
28.2

Give the reported value of inhibition at 50 µM for this record: Cc1ccc(S(=O)(=O)N2Cc3[nH]c4ccccc4c3C[C@@H]2C(=O)O)cc1
23

Give the reported value of inhibition at 50 µM for this record: C#CCN1Cc2[nH]c3ccccc3c2C[C@H]1C(=O)O
30.5

Give the reported value of inhibition at 50 µM for this record: O=C(O)[C@H]1Cc2c([nH]c3ccccc23)CN1CC1CC1
31.5

Give the reported value of inhibition at 50 µM for this record: COC(=O)[C@@H]1Cc2c([nH]c3ccccc23)CN1C(=O)NC12CC3CC(CC(C3)C1)C2
30.3

Give the reported value of inhibition at 50 µM for this record: COC(=O)[C@H]1Cc2c([nH]c3ccccc23)CN1C(=O)NC(C)C
32.6

Give the reported value of inhibition at 50 µM for this record: O=C(O)[C@H]1Cc2c([nH]c3ccccc23)CN1Cc1ccc(O)cc1
38.4

Give the reported value of inhibition at 50 µM for this record: C#CCN1Cc2[nH]c3ccccc3c2C[C@@H]1C(=O)OC
31.7

Give the reported value of inhibition at 50 µM for this record: COC(=O)[C@H]1Cc2c([nH]c3ccccc23)CN1Cc1ccc(O)cc1
38.7

Give the reported value of inhibition at 50 µM for this record: COC(=O)[C@@H]1Cc2c([nH]c3ccccc23)CN1S(=O)(=O)c1ccc(Br)cc1
36.7

Give the reported value of inhibition at 50 µM for this record: C=CCOC(=O)N1Cc2[nH]c3ccccc3c2C[C@H]1C(=O)O
38.4

Give the reported value of inhibition at 50 µM for this record: CCCCCNC(=O)N1Cc2[nH]c3ccccc3c2C[C@H]1C(=O)OC
-0.04

Give the reported value of inhibition at 50 µM for this record: COC(=O)[C@H]1Cc2c([nH]c3ccccc23)CN1S(C)(=O)=O
40.2

Give the reported value of inhibition at 50 µM for this record: COC(=O)[C@H]1Cc2c([nH]c3ccccc23)CN1Cc1ccccc1
38.4

Give the reported value of inhibition at 50 µM for this record: O=C(O)[C@H]1Cc2c([nH]c3ccccc23)CN1S(=O)(=O)c1ccc(Br)cc1
32.3

Give the reported value of inhibition at 50 µM for this record: COC(=O)[C@H]1Cc2c([nH]c3ccccc23)CN1Cc1ccc(OCc2ccccc2)cc1
27.3

Give the reported value of inhibition at 50 µM for this record: C#CCN1Cc2[nH]c3ccccc3c2C[C@H]1C(=O)OC
24.4

Give the reported value of inhibition at 50 µM for this record: O=C(O)[C@@H]1Cc2c([nH]c3ccccc23)CN1CC1CC1
30.2

Give the reported value of inhibition at 50 µM for this record: Cc1ccc(S(=O)(=O)N2Cc3[nH]c4ccccc4c3C[C@H]2C(=O)O)cc1
16.9

Give the reported value of inhibition at 50 µM for this record: O=C(O)[C@H]1Cc2c([nH]c3ccccc23)CN1
34.9

Give the reported value of inhibition at 50 µM for this record: COC(=O)[C@@H]1Cc2c([nH]c3ccccc23)CN1S(C)(=O)=O
30.5

Give the reported value of inhibition at 50 µM for this record: COC(=O)[C@H]1Cc2c([nH]c3ccccc23)CN1CC1CC1
37.9

Give the reported value of inhibition at 50 µM for this record: COC(=O)[C@H]1Cc2c([nH]c3ccccc23)CN1S(=O)(=O)c1ccc(Br)cc1
35.5

Give the reported value of inhibition at 50 µM for this record: COC(=O)[C@@H]1Cc2c([nH]c3ccccc23)CN1C(=O)NCCc1ccccc1
31.8

Give the reported value of inhibition at 50 µM for this record: CS(=O)(=O)N1Cc2[nH]c3ccccc3c2C[C@H]1C(=O)O
26.5

Give the reported value of inhibition at 50 µM for this record: COC(=O)[C@H]1Cc2c([nH]c3ccccc23)CN1C(=O)NC12CC3CC(CC(C3)C1)C2
39.9

Give the reported value of inhibition at 50 µM for this record: COC(=O)[C@@H]1Cc2c([nH]c3ccccc23)CN1CC1CC1
47.7

Give the reported value of inhibition at 50 µM for this record: COC(=O)[C@@H]1Cc2c([nH]c3ccccc23)CN1C(=O)NC(C)C
54

Give the reported value of inhibition at 50 µM for this record: COC(=O)[C@H]1Cc2c([nH]c3ccccc23)CN1
14.3

Give the reported value of inhibition at 50 µM for this record: COC(=O)[C@@H]1Cc2c([nH]c3ccccc23)CN1Cc1ccc(OCc2ccccc2)cc1
28

Give the reported value of inhibition at 50 µM for this record: COC(=O)[C@@H]1Cc2c([nH]c3ccccc23)CN1Cc1ccc(O)cc1
46.1

Give the reported value of inhibition at 50 µM for this record: COC(=O)[C@@H]1Cc2c([nH]c3ccccc23)CN1S(=O)(=O)c1ccc(C)cc1
41.7

Give the reported value of inhibition at 50 µM for this record: COC(=O)[C@H]1Cc2c([nH]c3ccccc23)CN1C(=O)NCCc1ccccc1
24.6

Give the reported value of inhibition at 50 µM for this record: O=C(O)[C@@H]1Cc2c([nH]c3ccccc23)CN1
20.7

Give the reported value of inhibition at 50 µM for this record: COC(=O)[C@H]1Cc2c([nH]c3ccccc23)CN1C(=O)NC1CCCCC1
24.4

Give the reported value of inhibition at 50 µM for this record: O=C(O)[C@H]1Cc2c([nH]c3ccccc23)CN1Cc1ccccc1
19.2

Give the reported value of inhibition at 50 µM for this record: C=CCOC(=O)N1Cc2[nH]c3ccccc3c2C[C@H]1C(=O)OC
54.6

Give the reported value of inhibition at 50 µM for this record: C=CCOC(=O)N1Cc2[nH]c3ccccc3c2C[C@@H]1C(=O)O
32.9

Give the reported value of inhibition at 50 µM for this record: O=C(O)[C@@H]1Cc2c([nH]c3ccccc23)CN1Cc1ccc(O)cc1
57.9

Give the reported value of inhibition at 50 µM for this record: O=C(O)[C@@H]1Cc2c([nH]c3ccccc23)CN1Cc1ccccc1
28

Give the reported value of inhibition at 50 µM for this record: COC(=O)[C@@H]1Cc2c([nH]c3ccccc23)CN1
18.3
